experiment: Hydrogel formation, confirmed by vial inversion method; format: physicochemical; settings: conjugate 1.5% w/v in PBS saline, pH 6.5–7.8; dissolved at pH 9 then readjusted, sonication; vial inversion
Where a SMILES comes first, the peptide text is derived from it. The star is where a group is joined. Palmitoyl = CCCCCCCCCCCCCCCC(=O)*; Myristoyl = CCCCCCCCCCCCCC(=O)*; Lauroyl = CCCCCCCCCCCC(=O)*

compound | Gelation Feature
CCCCCCCCCCCC(=O)N[C@H](C(=O)N[C@@H](CC(C)C)C(=O)N[C@@H](CC(=O)O)C(=O)O)[C@@H](C)CC [Compound 6] (Lauroyl-Ile-Leu-Asp-OH) | Hydrogels were formed
CCCCCCCCCCCCCC(=O)N[C@H](C(=O)N[C@@H](CC(C)C)C(=O)N[C@@H](CC(=O)O)C(=O)O)[C@@H](C)CC [Compound 7] (Myristoyl-Ile-Leu-Asp-OH) | Hydrogels were formed
CCCCCCCCCCCCCCCC(=O)N[C@H](C(=O)N[C@@H](CC(C)C)C(=O)N[C@@H](CC(=O)O)C(=O)O)[C@@H](C)CC [Compound 8] (Palmitoyl-Ile-Leu-Asp-OH) | Hydrogels were formed
